Origin of the recorded values: patent US20140105921A1

molecular target: c20s (Homo sapiens, UniProt P20618+P28074); assay: Purified PI, IC50 against c20s; type: biochemical; settings: IC50 60 minute point c20s, Table H, 60 minute point
Listed here: items and their measured IC50.
Quick reminder: number only, in µM, skip the unit.

COC[C@H](NC(=O)c1cnc(C)s1)C(=O)N[C@@H](COC)C(=O)N[C@@H](Cc1ccccc1)C(=O)[C@](C)(O)COS(=O)(=O)c1ccc(C)cc1 0.748

// field: IC50; key: "COC[C@H](NC(=O)c1cnc(C)s1)C(=O)N[C@@H](COC)C(=O)N[C@@H](Cc1ccccc1)C(=O)[C@](C)(O)COS(C)(=O)=O" ; value = 0.459

* * *

assay: Buffer Conversion Rates of Prodrugs to Compound B; format: physicochemical
// NB: equality with 6% counts as NO; only Buffer pH = 7.4 % Conversion @ 1 hour strictly below is YES

CCCCS(=O)(=O)OC[C@@](C)(O)C(=O)[C@H](Cc1ccccc1)NC(=O)[C@H](COC)NC(=O)[C@H](COC)NC(=O)c1cnc(C)s1 YES
COC[C@H](NC(=O)c1cnc(C)s1)C(=O)N[C@@H](COC)C(=O)N[C@@H](Cc1ccccc1)C(=O)[C@](C)(O)CI NO
COC[C@H](NC(=O)c1cnc(C)s1)C(=O)N[C@@H](COC)C(=O)N[C@@H](Cc1ccccc1)C(=O)[C@](C)(O)COS(=O)(=O)Cc1ccccc1 NO
COC[C@H](NC(=O)c1cnc(C)s1)C(=O)N[C@@H](COC)C(=O)N[C@@H](Cc1ccccc1)C(=O)[C@](C)(O)CCl YES
COC[C@H](NC(=O)c1cnc(C)s1)C(=O)N[C@@H](COC)C(=O)N[C@@H](Cc1ccccc1)C(=O)[C@](C)(O)COS(=O)(=O)C1CCOCC1 NO

Quick check: does "COC[C@H](NC(=O)c1cnc(C)s1)C(=O)N[C@@H](COC)C(=O)N[C@@H](Cc1ccccc1)C(=O)[C@](C)(O)CBr" have Buffer pH = 7.4 % Conversion @ 1 hour under 6%?
NO

Below 6% on Buffer pH = 7.4 % Conversion @ 1 hour? Entry "COC[C@H](NC(=O)c1cnc(C)s1)C(=O)N[C@@H](COC)C(=O)N[C@@H](Cc1ccccc1)C(=O)[C@](C)(O)COS(=O)(=O)CC(F)F"
YES

* * *

Collected pIC50 values appear next to each entry.
biological target: c20s (Homo sapiens, UniProt P20618+P28074); test: Purified PI, IC50 against c20s; assay type: biochemical; details: Table H, read-out: IC50 Slope c20s
# pIC50 is unitless: minus log10 of the molar concentration; print number only

Study these solved cases before continuing.
Compound	System under test	pIC50
COC[C@H](NC(=O)c1cnc(C)s1)C(=O)N[C@@H](COC)C(=O)N[C@@H](Cc1ccccc1)C(=O)[C@](C)(O)COS(=O)(=O)C1CCOCC1 [drawing 373]	c20s (Homo sapiens, UniProt P20618+P28074)	6.72
COC[C@H](NC(=O)c1cnc(C)s1)C(=O)N[C@@H](COC)C(=O)N[C@@H](Cc1ccccc1)C(=O)[C@](C)(O)COS(C)(=O)=O	c20s (Homo sapiens, UniProt P20618+P28074)	6.99
COC[C@H](NC(=O)c1cnc(C)s1)C(=O)N[C@@H](COC)C(=O)N[C@@H](Cc1ccccc1)C(=O)[C@](C)(O)COS(=O)(=O)Cc1ccccc1 [drawing 374]	c20s (Homo sapiens, UniProt P20618+P28074)	7.02

The compound identified as "COC[C@H](NC(=O)c1cnc(C)s1)C(=O)N[C@@H](COC)C(=O)N[C@@H](Cc1ccccc1)C(=O)[C@](C)(O)COS(=O)(=O)c1ccc(C)cc1" registered its pIC50 at 6.85
